Origin of measurements: patent US20110118447A1

Subject Of Test: binding partner of C5A (XPA23)
Run Description: Biacore
Metric Name: fold affinity vs original

Please go through the list and note fold affinity vs original for each binder.
1. C5A (XPA23) VH Y107E (antibody, V domains shown) VH: EVQLLESGGGLVQPGGSLRLSCAASGFTFSKYFMFWVRQAPGKGLEWVSVISPSGGMTRYADSVKGRFTISRDNSKNTLYLQMNSLRAEDTAVYYCARVGYGGNSDEWGQGTLVTVSS VL: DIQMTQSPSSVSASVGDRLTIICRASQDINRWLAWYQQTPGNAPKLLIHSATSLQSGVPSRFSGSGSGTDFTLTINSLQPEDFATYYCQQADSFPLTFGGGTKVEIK
2. C5A (XPA23) VH T58R (antibody, V domains shown) VH: EVQLLESGGGLVQPGGSLRLSCAASGFTFSKYFMFWVRQAPGKGLEWVSVISPSGGMRRYADSVKGRFTISRDNSKNTLYLQMNSLRAEDTAVYYCARVGYGGNSDYWGQGTLVTVSS VL: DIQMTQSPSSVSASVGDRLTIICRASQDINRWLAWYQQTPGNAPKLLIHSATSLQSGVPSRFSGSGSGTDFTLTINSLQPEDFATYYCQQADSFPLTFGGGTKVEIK

### Response
0.9 fold
1.14 fold

### Prompt Look at this binder and give its reported fold affinity vs original. C5A (XPA23) VH R59Q (antibody, V domains shown) VH: EVQLLESGGGLVQPGGSLRLSCAASGFTFSKYFMFWVRQAPGKGLEWVSVISPSGGMTQYADSVKGRFTISRDNSKNTLYLQMNSLRAEDTAVYYCARVGYGGNSDYWGQGTLVTVSS VL: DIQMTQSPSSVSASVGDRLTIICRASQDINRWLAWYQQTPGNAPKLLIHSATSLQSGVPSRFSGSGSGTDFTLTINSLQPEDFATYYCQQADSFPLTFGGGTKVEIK
### Response 0.86 fold
